# target: recombinant RSV complex (Human respiratory syncytial virus A)
# Sequence (P28887 whole entry): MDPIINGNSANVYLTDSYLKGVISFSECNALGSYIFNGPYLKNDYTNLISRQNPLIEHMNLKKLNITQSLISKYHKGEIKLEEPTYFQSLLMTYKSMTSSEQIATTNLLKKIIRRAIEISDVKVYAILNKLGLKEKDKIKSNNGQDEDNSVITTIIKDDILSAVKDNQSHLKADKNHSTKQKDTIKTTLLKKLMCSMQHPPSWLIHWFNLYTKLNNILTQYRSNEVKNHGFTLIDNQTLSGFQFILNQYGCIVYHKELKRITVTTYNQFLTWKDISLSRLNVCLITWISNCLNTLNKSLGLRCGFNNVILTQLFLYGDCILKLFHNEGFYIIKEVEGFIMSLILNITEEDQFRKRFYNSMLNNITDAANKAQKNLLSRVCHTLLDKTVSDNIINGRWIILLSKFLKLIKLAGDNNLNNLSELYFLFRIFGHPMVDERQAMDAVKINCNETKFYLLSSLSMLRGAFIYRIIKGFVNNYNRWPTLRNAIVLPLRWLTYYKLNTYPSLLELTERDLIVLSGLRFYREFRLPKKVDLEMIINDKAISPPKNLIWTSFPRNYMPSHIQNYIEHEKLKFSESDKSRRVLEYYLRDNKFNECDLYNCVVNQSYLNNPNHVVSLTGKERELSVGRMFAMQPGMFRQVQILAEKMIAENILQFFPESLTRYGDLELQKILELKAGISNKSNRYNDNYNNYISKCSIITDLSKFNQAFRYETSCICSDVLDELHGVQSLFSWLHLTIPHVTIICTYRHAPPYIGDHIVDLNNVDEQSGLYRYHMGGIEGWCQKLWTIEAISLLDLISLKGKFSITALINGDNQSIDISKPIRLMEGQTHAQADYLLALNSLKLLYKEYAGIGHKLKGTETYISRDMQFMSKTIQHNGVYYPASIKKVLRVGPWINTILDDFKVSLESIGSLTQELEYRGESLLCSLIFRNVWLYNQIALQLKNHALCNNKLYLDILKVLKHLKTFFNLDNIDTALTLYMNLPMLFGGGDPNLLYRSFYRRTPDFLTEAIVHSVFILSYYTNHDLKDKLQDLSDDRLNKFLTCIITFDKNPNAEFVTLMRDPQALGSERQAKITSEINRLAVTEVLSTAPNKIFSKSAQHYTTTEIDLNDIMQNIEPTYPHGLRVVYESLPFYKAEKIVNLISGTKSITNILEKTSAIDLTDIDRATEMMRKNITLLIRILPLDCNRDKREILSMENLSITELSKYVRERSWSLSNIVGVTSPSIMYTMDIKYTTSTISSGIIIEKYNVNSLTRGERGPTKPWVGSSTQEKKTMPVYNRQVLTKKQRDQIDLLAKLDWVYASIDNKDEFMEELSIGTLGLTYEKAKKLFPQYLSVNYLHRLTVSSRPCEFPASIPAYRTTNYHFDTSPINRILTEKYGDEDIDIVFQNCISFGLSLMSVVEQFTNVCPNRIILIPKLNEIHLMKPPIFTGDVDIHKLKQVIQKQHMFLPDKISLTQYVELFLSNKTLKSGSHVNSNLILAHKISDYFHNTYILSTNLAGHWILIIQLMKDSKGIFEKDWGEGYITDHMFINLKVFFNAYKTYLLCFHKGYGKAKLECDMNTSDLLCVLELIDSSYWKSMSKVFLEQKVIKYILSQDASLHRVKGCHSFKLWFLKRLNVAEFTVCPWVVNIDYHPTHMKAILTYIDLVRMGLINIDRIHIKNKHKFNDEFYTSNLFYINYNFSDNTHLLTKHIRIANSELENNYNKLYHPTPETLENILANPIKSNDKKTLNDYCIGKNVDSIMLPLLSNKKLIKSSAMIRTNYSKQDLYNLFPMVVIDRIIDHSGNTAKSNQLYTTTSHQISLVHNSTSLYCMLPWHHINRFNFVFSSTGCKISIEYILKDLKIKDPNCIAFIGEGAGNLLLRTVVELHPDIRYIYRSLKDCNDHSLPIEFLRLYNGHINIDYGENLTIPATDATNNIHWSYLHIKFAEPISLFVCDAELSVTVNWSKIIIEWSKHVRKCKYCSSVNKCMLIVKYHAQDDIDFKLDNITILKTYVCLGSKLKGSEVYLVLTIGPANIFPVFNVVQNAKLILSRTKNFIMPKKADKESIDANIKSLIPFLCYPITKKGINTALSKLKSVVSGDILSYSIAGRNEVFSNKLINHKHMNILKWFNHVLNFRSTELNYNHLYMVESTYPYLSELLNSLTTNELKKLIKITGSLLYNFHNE
# Sequence (P03421 whole entry, further chain): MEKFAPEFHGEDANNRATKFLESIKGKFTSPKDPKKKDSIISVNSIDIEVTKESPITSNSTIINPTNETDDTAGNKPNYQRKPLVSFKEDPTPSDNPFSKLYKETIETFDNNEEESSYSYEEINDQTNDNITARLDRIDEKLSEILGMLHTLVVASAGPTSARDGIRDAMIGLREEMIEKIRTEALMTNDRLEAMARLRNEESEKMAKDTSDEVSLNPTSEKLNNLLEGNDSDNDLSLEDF
# assayExplanation: RSV Polymerase Inhibition Assay
# Type: biochemical
Attribute: IC50

As a guide, the following entries are already answered.
compound="COc1cc(C(=O)NCC(O)(c2cc3c(c(-c4ccc(F)c(Cl)c4)n2)OCC3(C)C)C(F)(F)F)ccc1OCC(N)=O (stereo not drawn)" observationtype=IC50 obsvalue="< 1000 nM"
compound="COc1cc(C(=O)NCC(O)(c2ccc(OC)c(-c3ccc(F)c(Cl)c3)n2)C(F)(F)F)ccc1OCC(C)=O (stereo not drawn)" observationtype=IC50 obsvalue="< 1000 nM"
compound="COc1cc(C(=O)NCC(O)(c2cc(C3(N)CC3)cc(-c3ccc(F)cc3)n2)C(F)(F)F)ccc1OC[C@@H](C)O (stereo partly drawn)" observationtype=IC50 obsvalue="< 1000 nM"
compound="COCC(C)(N)c1cc(-c2ccc(F)c(Cl)c2)nc(C(O)(CNC(=O)c2ccc(OC3CC3)c(OC)c2)C(F)(F)F)c1 (stereo not drawn)" observationtype=IC50 obsvalue="< 1000 nM"
compound="COc1cc(C(=O)NCC(O)(c2ccc(OC)c(-c3ccc(F)c(Cl)c3)n2)C(F)F)ccc1OC[C@@H](C)O (stereo partly drawn)" observationtype=IC50 obsvalue="< 1000 nM"
compound="COc1ccc(C(O)(CNC(=O)c2ccc(OCC(N)=O)c(Cl)c2)C(F)(F)F)nc1-c1ccc(F)c(Cl)c1 (stereo not drawn)" observationtype=IC50 obsvalue="< 1000 nM"

Next compound, IC50 to be filled in.
Please indicate IC50 recorded for `COc1cc(C(=O)NC[C@@](O)(c2cc(C(C)(C)N)cc(-c3ccc(F)c(Cl)c3)n2)C(F)(F)F)ccc1OC[C@@H](C)O`
< 1000 nM
